# procedureDetails: Pharmacokinetics following IV & SC administration
# runParameters: Wistar, rat, in vivo, sc, circulatory half-life, subcutaneous administration to rats
testReadout: half-life

1. C[C@@H](O)[C@@H]1NC(=O)[C@H](CCCCN)NC(=O)[C@@H](Cc2c[nH]c3ccccc23)NC(=O)[C@H](Cc2c[nH]c3ccccc23)NC(=O)[C@H](Cc2ccccc2)NC(=O)CCCNC(=O)CCCN(CC(N)=O)C(=O)[C@H](Cc2ccccc2)NC1=O; ~3 h

---

# procedureDetails: Pharmacokinetics following IV & SC administration
# runParameters: Wistar, rat, urine, sc
testReadout: dose excreted (%)

1) C[C@@H](O)[C@@H]1NC(=O)[C@H](CCCCN)NC(=O)[C@@H](Cc2c[nH]c3ccccc23)NC(=O)[C@H](Cc2c[nH]c3ccccc23)NC(=O)[C@H](Cc2ccccc2)NC(=O)CCCNC(=O)CCCN(CC(N)=O)C(=O)[C@H](Cc2ccccc2)NC1=O; 15.9

---

# systemUnderTest: SSTR-2 (Homo sapiens)
# Construct: expressed in transfected cells
# Sequence (P30874 whole entry): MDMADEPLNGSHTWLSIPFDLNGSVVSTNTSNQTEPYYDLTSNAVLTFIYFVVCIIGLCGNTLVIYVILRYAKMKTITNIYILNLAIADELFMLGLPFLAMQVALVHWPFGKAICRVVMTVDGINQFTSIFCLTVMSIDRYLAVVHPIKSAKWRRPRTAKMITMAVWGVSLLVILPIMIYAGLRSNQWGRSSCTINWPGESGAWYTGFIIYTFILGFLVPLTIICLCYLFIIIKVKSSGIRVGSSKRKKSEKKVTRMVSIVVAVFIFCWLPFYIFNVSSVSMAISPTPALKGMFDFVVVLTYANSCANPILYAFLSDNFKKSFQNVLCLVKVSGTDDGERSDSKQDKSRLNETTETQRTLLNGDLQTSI
# procedureDetails: Inhibition of 125I-Tyr11-SRIF binding to membrane preparations expressing SSTR-2
# runParameters: Table 15; read-out: IC50 (nM) for SST-R 2
*1 amine or outer side, *2 acyl side, *3 side chain or, on linkers, in order; H or OH if unused. Where a SMILES comes first, the peptide text is derived from it. Bridges are numbered along the chain shown (N, C = ends). [ ]: non-standard residue; d: D form. N(2-mercaptoethyl)Gly = O=C(CN(CCS[*:3])[*:1])[*:2]
testReadout: IC50 (nM)

1) C[C@@H](O)[C@@H]1NC(=O)[C@H](CCCCN)NC(=O)[C@@H](Cc2c[nH]c3ccccc23)NC(=O)[C@H](Cc2c[nH]c3ccccc23)NC(=O)[C@H](Cc2ccccc2)NC(=O)CSSCCN(CC(N)=O)C(=O)[C@H](Cc2ccccc2)NC1=O; 37
2) C[C@@H](O)[C@@H]1NC(=O)[C@H](CCCCN)NC(=O)[C@@H](Cc2c[nH]c3ccccc23)NC(=O)[C@H](Cc2c[nH]c3ccccc23)NC(=O)[C@H](Cc2ccccc2)NC(=O)CCSSCCN(CC(N)=O)C(=O)[C@H](Cc2ccccc2)NC1=O; 37
3) C[C@@H](O)[C@@H]1NC(=O)[C@H](CCCCN)NC(=O)[C@@H](Cc2c[nH]c3ccccc23)NC(=O)[C@H](Cc2c[nH]c3ccccc23)NC(=O)[C@H](Cc2ccccc2)NC(=O)[C@@H](N)CSSCCN(CC(N)=O)C(=O)[C@H](Cc2ccccc2)NC1=O [PTR 3197] (H-CFW[dW]KTF[N(2-mercaptoethyl)Gly]-NH2; disulfide 1-8; N-terminus assumed); 4
4) C[C@@H](O)[C@@H]1NC(=O)[C@H](CCCCN)NC(=O)[C@@H](Cc2c[nH]c3ccccc23)NC(=O)[C@H](Cc2c[nH]c3ccccc23)NC(=O)[C@H](Cc2ccccc2)NC(=O)CNCCSSCCN(CC(N)=O)C(=O)[C@H](Cc2ccccc2)NC1=O; 4
